Test system: K562
Assay: NCI tumour cell line growth inhibition, 48 h
Calls of active or inactive are those of the source. Rule as the data show it: active = GI50 up to about 1.1 µM and inactive = higher.
Use one of these outcomes when replying: Yes = active, No = inactive

>  <compound>
CN(C)CCNc1ccc2nnn3c4ccc(Cl)cc4c(=O)c1c23

>  <class.name>
No

$$$$
>  <compound>
C/N=N/N(C)C(=O)NC

>  <class.name>
No

$$$$
>  <compound>
COc1cc(-c2cc(=O)c3c(OC)c(OC)c(OC)cc3o2)c(OC)c(OC)c1OC

>  <class.name>
No

$$$$
>  <compound>
CCCCCCCCCC(=O)N[C@@H](c1ccco1)[C@@H](O)C(=O)O[C@H]1C[C@@]2(O)[C@@H](OC(=O)c3ccccc3)[C@@H]3[C@]4(OC(C)=O)CO[C@@H]4C[C@H](O)[C@@]3(C)C(=O)[C@H](OC(C)=O)C(=C1C)C2(C)C

>  <class.name>
Yes

$$$$
>  <compound>
C=Cc1cc2c(cc1O)CC[C@@H]1[C@@H]2CC[C@]2(C)[C@@H](O)CC[C@@H]12

>  <class.name>
No

$$$$

Task: Fill in: this test's call for c1ccc(C[N+]23C(CC[C@H]2c2ccccc2)CC[C@H]3c2ccccc2)cc1 (stereo partly drawn) is ___
Output: No

Task: Fill in: this test's call for COc1cccc2c1C(=O)c1c(O)c3c(c(O)c1C2=O)C[C@@](O)(C(=O)CO)C[C@@H]3OC1CC(N)C(OC)C(C)O1 (stereo partly drawn) is ___
Output: Yes

Task: Fill in: this test's call for `Oc1c(NCn2nc(CCCCCCCCc3nn(CNc4ccc5ccccc5c4O)c(=S)o3)oc2=S)ccc2ccccc12` is ___
Output: No

* * *

Tested on: NCI-H23
Assay: NCI tumour cell line growth inhibition, 48 h
Active and inactive are the calls of the source. No stated cut-off is given here; in the data, active = GI50 up to about 1.1 µM and inactive = higher.
reported.property: GI50

Recorded GI50, per entry:
>  <molecule>
CC(CO)CCC(O)C(C)(O)C1CCC2(O)C3=CC(=O)C4CC(O)C(O)CC4(C)C3CCC12C (stereo not given)

>  <GI50>
> 100 µM (inactive)

$$$$
>  <molecule>
Cc1nc2ccccc2c(=O)n1/N=C(\N=N\c1cc(Cl)ccc1Cl)c1ccc(N(C)C)cc1

>  <GI50>
34.8 µM (inactive)

$$$$
>  <molecule>
CCOC(=O)C1=C(Nc2ccc(Cl)c(Cl)c2)OC/C1=N\NS(=O)(=O)c1ccc(C)cc1

>  <GI50>
34.7 µM (inactive)

$$$$
>  <molecule>
N#CC(C(=O)C(=O)Nc1c(Cl)cccc1Cl)c1ccccc1 (stereo not given)

>  <GI50>
> 10 µM (inactive)

$$$$
>  <molecule>
CN(CCCNC(=O)c1nn(C)c2c1Cc1ccccc1-2)CCCNC(=O)c1nn(C)c2c1Cc1ccccc1-2

>  <GI50>
21.9 µM (inactive)

$$$$
>  <molecule>
COc1ccc(C2C(N)=NCC2c2ccccn2)cc1 (stereo not given)

>  <GI50>
> 100 µM (inactive)

$$$$

Task: So what does the record say about GI50 for `O=c1[nH]c2ccccc2cc1C(Cl)=C(Cl)Cl` ?
Output: > 100 µM (inactive)

Task: So what does the record say about GI50 for `O=C1CSc2sc(=S)sc2S1` ?
Output: > 100 µM (inactive)

Task: So what does the record say about GI50 for O=C(O)CCC1NC(/C(=C/c2ccccc2O)NC(=O)c2ccccc2)OC1=O (stereo not given) ?
Output: > 100 µM (inactive)

Task: So what does the record say about GI50 for COC(=O)c1cc(C)ccc1CC(Cc1cccc(C)c1)C(=O)OC (stereo not given) ?
Output: 38.5 µM (inactive)

* * *

Test system: SK-OV-3
Assay: NCI tumour cell line growth inhibition, 48 h
Calls of active or inactive are those of the source. Rule as the data show it: active = GI50 up to about 1.1 µM and inactive = higher.
Use one of these outcomes when replying: Yes for active, No for inactive

>  <compound>
C=C1CC(c2ccc(OCCCN3C(=O)c4ccccc4C3=O)c(OC)c2)OC1=O (stereo unspecified)

>  <class.name>
No

$$$$
>  <compound>
C[C@H]1C=C2C(=O)O[C@H]3CC[C@@H](C1)[C@@]23O

>  <class.name>
No

$$$$
>  <compound>
CCN(CCCl)CCCNc1c2ccccc2nc2ccc(OC)cc12

>  <class.name>
Yes

$$$$

Task: Fill in: this test's call for `O=[N+]([O-])/C(C(Cl)=C(Cl)Cl)=C(/Nc1ccccc1)Sc1ccccc1` is ___
Output: No

Task: Fill in: this test's call for `O=C(Nc1nc2ncn(CCNCc3ccccc3)c2c(=O)[nH]1)c1ccccc1` is ___
Output: No

Task: Fill in: this test's call for `Cc1c(-c2coc(-c3ccc(Cl)cc3)n2)c(=O)n(-c2ccccc2)n1C` is ___
Output: No

Task: Fill in: this test's call for `c1ccc(-c2nc(-c3ccccc3SSc3ccccc3-c3nc(-c4ccccc4)nn3-c3ccccc3)n(-c3ccccc3)n2)cc1` is ___
Output: No

Task: Fill in: this test's call for `CCOC(=O)Cc1nc(/C(C#N)=C/c2ccco2)[nH]c(=O)c1C#N` is ___
Output: No

Task: Fill in: this test's call for COc1cc(C2c3cc4c(c(O)c3C(=O)C3CCC(=O)N32)OCO4)cc(OC)c1OC (stereo unspecified) is ___
Output: No

Task: Fill in: this test's call for O=C1CC(O)c2c(Cl)sc(Cl)c21 (stereo unspecified) is ___
Output: No

Task: Fill in: this test's call for `CCC1(O)C=CC(=O)C=C1` is ___
Output: No

* * *

Test system: HOP-18
Assay: NCI tumour cell line growth inhibition, 48 h
The source made the active and inactive calls. No stated cut-off is given here; in the data, active = GI50 up to about 1.1 µM and inactive = higher.
Listed here: items and their measured GI50.

Recorded GI50, per entry:
>  <compound>
CCOC(=O)NC/C=C/CO

>  <GI50>
> 100 µM (inactive)

$$$$
>  <compound>
COc1ccccc1/C=C(\NC(=O)c1ccccc1)c1nc2ccccc2[nH]1

>  <GI50>
46.3 µM (inactive)

$$$$
>  <compound>
Cc1cc2occ(-c3ccc(Cl)cc3)c2c(=O)o1

>  <GI50>
> 100 µM (inactive)

$$$$
>  <compound>
CC(=O)OC12C(C)=C(C)C(=O)N1c1ccccc1N2C(C)=O (stereo unspecified)

>  <GI50>
> 100 µM (inactive)

$$$$
>  <compound>
Cc1ccc(Sc2ccccc2N)cc1

>  <GI50>
77.8 µM (inactive)

$$$$
>  <compound>
NC(=O)c1c([N+](=O)[O-])cc(C(F)(F)F)cc1[N+](=O)[O-]

>  <GI50>
> 100 µM (inactive)

$$$$
>  <compound>
CC(O)C(NC(=O)c1ccccc1)C(=O)N(Cc1ccccc1)Cc1ccccc1 (stereo unspecified)

>  <GI50>
37 µM (inactive)

$$$$
>  <compound>
O=C(Nc1ccccc1[N+](=O)[O-])C(=O)C(C(=O)c1ccccc1-c1ccccc1)C1OC(=O)c2ccccc21 (stereo unspecified)

>  <GI50>
14.1 µM (inactive)

$$$$

Task: So what does the record say about GI50 for `CCOC(=O)Cc1nc(/C(C#N)=C/c2ccco2)[nH]c(=O)c1C#N` ?
Output: > 100 µM (inactive)

Task: So what does the record say about GI50 for CC(NC(=O)/C(C#N)=C/c1ccc2[nH]ccc2c1)c1ccccc1 (stereo unspecified) ?
Output: 24.3 µM (inactive)

Task: So what does the record say about GI50 for COc1ccc(CC/N=C2\CCC(C(=O)NCCc3ccc(OC)c(OC)c3)N2)cc1OC (stereo unspecified) ?
Output: > 100 µM (inactive)

* * *

Tested on: NCI-H522
Assay: NCI tumour cell line growth inhibition, 48 h
The source made the active and inactive calls. Cut-off read from the data, not from the text of the source: active = GI50 up to about 1.1 µM and inactive = higher.
Listed here: items and their measured GI50.

>  <compound>
Cc1ccccc1-n1c(=O)c2ncn(C3CCCO3)c2n(-c2ccccc2C)c1=S (configuration not stated)

>  <GI50>
> 100 µM (inactive)

$$$$

Task: So what does the record say about GI50 for `C=Nc1ccc([N+](=O)[O-])cc1` ?
Output: > 100 µM (inactive)

Task: So what does the record say about GI50 for `CCc1cccc(C)c1NC(=O)C(=O)Cc1nc2ccccc2s1` ?
Output: > 100 µM (inactive)

Task: So what does the record say about GI50 for CC(=O)OCC1OC(n2cc(F)c(=O)[nH]c2=O)C(N)C(OC(C)=O)C1OC(C)=O (configuration not stated) ?
Output: > 100 µM (inactive)

Task: So what does the record say about GI50 for `Clc1ccc(Cc2nc3ccccc3nc2-c2cccc(Br)c2)cc1` ?
Output: 1.78 µM (inactive)

Task: So what does the record say about GI50 for NC(Cn1ccc(=O)c(O)c1)C(=O)O (configuration not stated) [MIMOSINE] ?
Output: > 100 µM (inactive)

Task: So what does the record say about GI50 for `Cc1ccc(C)c(NC(=O)C(=O)Nn2c(S)nc3ccccc3c2=O)c1` ?
Output: > 100 µM (inactive)

Task: So what does the record say about GI50 for `COc1ccc(/C(=C/n2ccnc2)C(=O)c2ccc(OC)c(OC)c2)cc1` ?
Output: > 100 µM (inactive)
